molecular target: NEK11 (human) (UniProt Q8NG66); experiment: KINOMEscan competition binding; conditions: compound 10.0 µM
Sequence (Q8NG66 whole entry, looked up): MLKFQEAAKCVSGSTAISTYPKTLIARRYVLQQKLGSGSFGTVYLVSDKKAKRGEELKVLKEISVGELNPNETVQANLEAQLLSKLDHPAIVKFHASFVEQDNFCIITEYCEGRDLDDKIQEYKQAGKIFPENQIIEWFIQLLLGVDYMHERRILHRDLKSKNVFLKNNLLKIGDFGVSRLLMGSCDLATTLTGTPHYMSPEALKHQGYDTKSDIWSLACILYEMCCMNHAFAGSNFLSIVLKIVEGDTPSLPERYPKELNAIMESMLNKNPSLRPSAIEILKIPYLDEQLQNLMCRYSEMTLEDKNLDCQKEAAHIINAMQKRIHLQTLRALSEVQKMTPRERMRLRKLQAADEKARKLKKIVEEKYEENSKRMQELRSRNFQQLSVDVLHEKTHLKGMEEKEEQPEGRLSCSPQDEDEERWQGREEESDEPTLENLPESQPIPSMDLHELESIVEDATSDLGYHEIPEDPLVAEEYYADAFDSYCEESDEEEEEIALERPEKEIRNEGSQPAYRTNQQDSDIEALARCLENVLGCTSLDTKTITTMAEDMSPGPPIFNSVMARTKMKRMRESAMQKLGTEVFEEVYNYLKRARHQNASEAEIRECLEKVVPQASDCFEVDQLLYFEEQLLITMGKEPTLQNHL
attribute-measured: kinase still bound, per cent of control (%)
Give bare numbers, in %.

INSERT INTO measurements (cpd_smiles, units, data_value) VALUES
  ('O=c1cc(N2CCOCC2)oc2c(-c3cccc4c3sc3ccccc34)cccc12', '%', 100);

Record kinase still bound, per cent of control for all entries; do not skip any.
1. COc1ccc(N(C(=O)Oc2c(C)cccc2C)c2ccnc(Nc3ccc(N4CCN(C)CC4)cc3)n2)c(OC)c1
2. COc1cc2ncnc(-n3nc(-c4ccccn4)nc3N)c2cc1OC
3. C=CC(=O)Nc1cc(-n2c(=O)ccc3cnc4ccc(-c5cn[nH]c5)cc4c32)ccc1C
4. O=C1NC(=O)/C(=C/c2ccc3nccc(-c4ccncc4)c3c2)S1
5. CNC(=O)c1cc(Oc2ccc(NC(=O)Nc3ccc(Cl)c(C(F)(F)F)c3)cc2)ccn1

Reply text:
100
80
100
72
100

====

Task for the reader: assign each of the following compounds its reported kinase still bound, per cent of control.
target: JAK2 JH1 catalytic (human) (UniProt O60674); assay: KINOMEscan competition binding; conditions: compound 10.0 µM
Sequence (O60674 whole entry, looked up): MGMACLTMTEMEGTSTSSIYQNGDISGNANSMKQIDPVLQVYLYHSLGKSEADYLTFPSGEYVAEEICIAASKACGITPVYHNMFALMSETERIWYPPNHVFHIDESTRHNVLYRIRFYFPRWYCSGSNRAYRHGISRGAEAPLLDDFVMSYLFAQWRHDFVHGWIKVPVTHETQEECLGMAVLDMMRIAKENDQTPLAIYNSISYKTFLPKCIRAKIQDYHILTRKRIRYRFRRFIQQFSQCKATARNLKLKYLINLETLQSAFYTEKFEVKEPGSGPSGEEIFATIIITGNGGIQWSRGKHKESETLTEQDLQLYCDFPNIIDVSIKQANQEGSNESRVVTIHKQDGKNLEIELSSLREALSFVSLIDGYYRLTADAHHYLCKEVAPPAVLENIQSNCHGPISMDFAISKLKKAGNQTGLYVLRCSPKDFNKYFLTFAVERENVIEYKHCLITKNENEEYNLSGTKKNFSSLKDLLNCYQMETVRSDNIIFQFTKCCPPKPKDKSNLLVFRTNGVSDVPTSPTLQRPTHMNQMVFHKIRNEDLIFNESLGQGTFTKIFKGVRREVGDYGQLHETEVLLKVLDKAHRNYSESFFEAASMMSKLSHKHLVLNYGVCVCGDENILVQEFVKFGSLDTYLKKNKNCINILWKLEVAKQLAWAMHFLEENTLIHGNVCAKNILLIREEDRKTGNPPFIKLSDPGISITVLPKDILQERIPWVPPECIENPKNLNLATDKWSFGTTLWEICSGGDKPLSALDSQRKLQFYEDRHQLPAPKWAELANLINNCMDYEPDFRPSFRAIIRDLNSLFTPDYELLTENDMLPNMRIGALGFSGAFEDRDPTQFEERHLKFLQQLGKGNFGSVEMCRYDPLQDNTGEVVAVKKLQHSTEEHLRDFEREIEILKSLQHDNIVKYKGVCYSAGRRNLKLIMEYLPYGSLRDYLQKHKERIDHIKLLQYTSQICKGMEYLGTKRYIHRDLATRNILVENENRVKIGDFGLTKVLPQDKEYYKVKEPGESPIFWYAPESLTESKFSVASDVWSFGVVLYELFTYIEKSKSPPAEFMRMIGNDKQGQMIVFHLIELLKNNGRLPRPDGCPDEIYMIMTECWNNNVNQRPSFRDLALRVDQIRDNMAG
Give bare numbers, in %.

Could you report kinase still bound, per cent of control for every entry in the following list?
1. O=c1cc(N2CCOCC2)oc2c(-c3cccc4c3sc3ccccc34)cccc12
2. CS(=O)(=O)N1CCN(Cc2cc3nc(-c4cccc5[nH]ncc45)nc(N4CCOCC4)c3s2)CC1
3. C=CC(=O)Nc1ccc(CN(C(=O)Nc2c(Cl)c(OC)cc(OC)c2Cl)c2cc(Nc3ccc(N4CCN(C)CC4)cc3)ncn2)cc1

Reply text:
[67, 100, 100]

====

molecular target: MAP2K5 (human); assay: KINOMEscan competition binding; settings: compound 10.0 µM
So I've got a bunch of compounds here, and I need their kinase still bound, per cent of control values.
Numbers only, in %.

Sample records with kinase still bound, per cent of control:
INSERT INTO results (cpd_smiles, data_value) VALUES
  ('N#CCNC(=O)c1ccc(-c2ccnc(Nc3ccc(N4CCOCC4)cc3)n2)cc1', 100),
  ('CCN1CCN(C(=O)Cc2ccc(Nc3ncc(F)c(Nc4ccc(C(=O)Nc5ccccc5Cl)cc4)n3)cc2)CC1', 9.8),
  ('O=C1NC(=O)/C(=C/c2ccc3nccc(-c4ccncc4)c3c2)S1', 46),
  ('C[C@@H](Oc1cc(-c2cnn(C3CCNCC3)c2)cnc1N)c1c(Cl)ccc(F)c1Cl', 54),
  ('COc1ccc(N(C(=O)Oc2c(C)cccc2C)c2ccnc(Nc3ccc(N4CCN(C)CC4)cc3)n2)c(OC)c1', 0.55),
  ('NC(=O)Nc1cc(-c2cccc(F)c2)sc1C(=O)N[C@@H]1CCCNC1', 0.05),
  ('COc1cc2ncn(-c3cc(OCc4ccccc4C(F)(F)F)c(C(N)=O)s3)c2cc1OC', 0.45),
  ('COc1cc2ncnc(-n3nc(-c4ccccn4)nc3N)c2cc1OC', 1.1);

Provide kinase still bound, per cent of control for all items below, preserving their order.
1. O=C(Nc1cccc(Nc2ncc(Br)c(NCCc3cnc[nH]3)n2)c1)N1CCCC1
2. COc1cc(C(=O)N2CCC(N3CCN(C)CC3)CC2)ccc1Nc1ncc2c(n1)N(C)c1ccccc1C(=O)N2C

Reply text:
[0.6, 85]
